The origin of these recorded values is patent US9340579B2.

- TESTED SYSTEM: DPP-4 (manufactured by Sigma, derived from porcine kidney) (porcine, UniProt P22411 38-766, limits assumed)
- Sequence (P22411 38-766 limits assumed): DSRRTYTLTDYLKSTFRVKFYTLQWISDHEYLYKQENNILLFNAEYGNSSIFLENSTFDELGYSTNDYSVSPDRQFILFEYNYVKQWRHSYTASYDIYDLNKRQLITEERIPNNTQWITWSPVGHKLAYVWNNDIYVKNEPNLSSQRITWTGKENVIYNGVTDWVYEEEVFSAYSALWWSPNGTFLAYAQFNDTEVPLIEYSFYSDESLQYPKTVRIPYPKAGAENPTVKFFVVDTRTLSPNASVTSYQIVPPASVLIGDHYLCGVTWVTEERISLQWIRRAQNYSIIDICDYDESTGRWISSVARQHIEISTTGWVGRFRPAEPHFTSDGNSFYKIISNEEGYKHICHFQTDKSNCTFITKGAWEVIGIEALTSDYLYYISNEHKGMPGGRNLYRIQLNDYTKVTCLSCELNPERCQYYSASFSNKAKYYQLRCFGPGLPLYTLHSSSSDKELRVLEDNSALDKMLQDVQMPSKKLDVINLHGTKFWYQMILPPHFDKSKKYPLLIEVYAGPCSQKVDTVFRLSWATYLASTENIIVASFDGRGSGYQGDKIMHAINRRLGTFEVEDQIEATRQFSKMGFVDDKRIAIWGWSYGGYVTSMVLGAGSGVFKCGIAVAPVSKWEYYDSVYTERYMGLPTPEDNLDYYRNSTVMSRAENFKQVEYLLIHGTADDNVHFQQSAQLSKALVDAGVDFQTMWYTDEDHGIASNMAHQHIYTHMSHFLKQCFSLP
- TEST: cell-based or functional assay
Square brackets hold non-standard residues; d marks the D form. Ends that are not written are not given here. Hyp = O=C(O)[C@@H]1C[C@@H](O)CN1

{"BINDER": "Ile-[Hyp]-Gly [Ile-Hyp-Gly]", "QUANTITY UNIT": "µM", "IC50 value": 500}
{"BINDER": "Leu-[Hyp]-Gly [Leu-Hyp-Gly]", "QUANTITY UNIT": "µM", "IC50 value": 130}
{"BINDER": "APG [Ala-Pro-Gly]", "QUANTITY UNIT": "µM", "IC50 value": 30}
{"BINDER": "LPGPA [Leu-Pro-Gly-Pro-Ala]", "QUANTITY UNIT": "µM", "IC50 value": 63}
